Where do the numbers come from? From the supplement of paper PMC9732359.

PROTOCOL DETAILS: protein stability index of a GFP-peptide fusion (yeast GPS) (PSI 1-4); higher = more stable; sorted into four equal gates, so the index is relative within each strain
CONDITION CONTEXT: san1∆
Use 1 when the recorded protein stability index is no lower than 3; use -1 when it is lower.

AVGNLGNAIEVTEDGSI [RPL22B]: -1
RAVLKSFLESVIRDSVT [HHF1]: -1
QRETYDSNESDDDVTPS [YLR335W/NUP2]: -1
GVQSNGDQFLRYVNLLG [PRE4]: -1

## Input Textbook exercise: given the entry YAIIINYTKDNEYYPMC [YCS4] , state whether its protein stability index is greater than or equal to 3.
## Output -1

## Input Textbook exercise: given the entry MGDNSQLDFTEFDEQYG [SNF2] , state whether its protein stability index is greater than or equal to 3.
## Output 1

## Input Textbook exercise: given the entry FGSKPTGATSLFGSSNN [YGL172W/NUP49] , state whether its protein stability index is greater than or equal to 3.
## Output 1

## Input Textbook exercise: given the entry FGYPETIANSIILHFAN [YMR153W/NUP53] , state whether its protein stability index is greater than or equal to 3.
## Output -1

## Input Textbook exercise: given the entry AFRRIMISEVPSVAAEY [RPC40] , state whether its protein stability index is greater than or equal to 3.
## Output -1

## Input Textbook exercise: given the entry TILCTPTGGKAKLSEGT [RPS27A] , state whether its protein stability index is greater than or equal to 3.
## Output 1

## Input Textbook exercise: given the entry VIEEDYDDEQNTSAQHV [IRR1] , state whether its protein stability index is greater than or equal to 3.
## Output 1

## Input Textbook exercise: given the entry AARDNKKTRIIPRHLQL [HTA1] , state whether its protein stability index is greater than or equal to 3.
## Output 1

## Input Textbook exercise: given the entry KTSNIESVPIYSIDEFF [BRR2] , state whether its protein stability index is greater than or equal to 3.
## Output -1

* * *

PROTOCOL DETAILS: protein stability index of a GFP-peptide fusion (yeast GPS) (PSI 1-4); higher = more stable; sorted into four equal gates, so the index is relative within each strain
CONDITION CONTEXT: ubr1∆
Let's look at some sequences and their measured protein stability index.
The reply should be a number, written without any unit.

The following sequences have reported results that may help.
VFALHKYKPTPLYVMDE [SMC4]: 3.07
ARIIAAIPNPEDVVAIS [RPS0A]: 2.31
IYAKYGAKGSTLIVVPF [FAS2]: 2.13
KNIQSKDSYINANTIET [FAS2]: 2.94
GAHKFLDTYLPEDLNSL [SIR2]: 1.81

Kindly note the recorded protein stability index for PLRMETIPILESDSKAT [DSN1] , which is 2.27

Kindly note the recorded protein stability index for GHSLGEYAALASLADVM [FAS1] , which is 2.6

Kindly note the recorded protein stability index for SHTSLVKIGKFIPHGLK [SRB8] , which is 1.55

Kindly note the recorded protein stability index for LIAIVSKLLQTTLKLSP [NUT1] , which is 1.21

Kindly note the recorded protein stability index for EPSYIFEYLATVMYQRR [PRE4] , which is 2.12

Kindly note the recorded protein stability index for GVVVLRDREPKEPVALI [RPN2] , which is 3.41

Kindly note the recorded protein stability index for NDICSVENYETSSAFFY [SIR4] , which is 2.77

Kindly note the recorded protein stability index for APAVELHGNAKKAAEEA [FAS2] , which is 3.3

Kindly note the recorded protein stability index for KDFVTMAIEIINDIRDD [YCG1] , which is 2.42

Kindly note the recorded protein stability index for VNDVEELGEIIDEDIGN [RMP1] , which is 3.19

Kindly note the recorded protein stability index for PERWLPLRDRSTYRPKK [SRP72] , which is 3.64

Kindly note the recorded protein stability index for RITNSFYSTNSQYFKFK [RPN9] , which is 2.83

Kindly note the recorded protein stability index for TWYVGNSRGKFDDACNQ [SSN2] , which is 3.26

Kindly note the recorded protein stability index for SKATGAPSANQGDEALS [RTT102] , which is 3.14

Kindly note the recorded protein stability index for EIALKGLESLLNIGLGA [YCS4] , which is 2.77

Kindly note the recorded protein stability index for RAASAKIESSVESQFSA [RPS8A] , which is 3.45

Kindly note the recorded protein stability index for GRHHQEEELFQEMIEIS [SRP54] , which is 3.35

* * *

PROTOCOL DETAILS: protein stability index of a GFP-peptide fusion (yeast GPS) (PSI 1-4); higher = more stable; sorted into four equal gates, so the index is relative within each strain
CONDITION CONTEXT: doa10∆
Let's look at some sequences and their measured protein stability index.
The reply should be a number, written without any unit.

FILLDRLRQFNLQPIST [SMC4]: 2.22

Kindly note the recorded protein stability index for HARGGGAISAVAATNTP [SRP54] , which is 1.69

Kindly note the recorded protein stability index for RDEIAKNTELSYDFLPL [RPN12] , which is 1.54

* * *

PROTOCOL DETAILS: protein stability index of a GFP-peptide fusion (yeast GPS) (PSI 1-4); higher = more stable; sorted into four equal gates, so the index is relative within each strain
CONDITION CONTEXT: doa10∆
PROPERTY: protein stability index
The reply should be a number, written without any unit.

LLIISCIIFITFEFINI [YML031W/NDC1]: 1.29
SHLYKARLDGHDFLFNT [RPN14]: 3.37

Kindly note the recorded protein stability index for KKKGLDENTSGKISKPR [PRP28] , which is 3.5

* * *

PROTOCOL DETAILS: protein stability index of a GFP-peptide fusion (yeast GPS) (PSI 1-4); higher = more stable; sorted into four equal gates, so the index is relative within each strain
CONDITION CONTEXT: doa10∆
PROPERTY: protein stability index
The reply should be a number, written without any unit.

TNNMEKIIEDLRQKHEF [SMC2]: 3.12
GGSFGNREEFINKLVKS [RPL7A]: 2.98
AIPNSIIKRSNGQSLSP [YMR153W/NUP53]: 2.14

Kindly note the recorded protein stability index for ETLVLSYFSPINSSNEA [YCG1] , which is 2.67

Kindly note the recorded protein stability index for KVKILEQIDENWSKEDL [SWI3] , which is 3.12

Kindly note the recorded protein stability index for RKLMEMENILQRCKSNA [YIL149C/MLP2] , which is 2.04

Kindly note the recorded protein stability index for ISQLYSDAVMAEHSQNK [YJL041W/NSP1] , which is 2.99

Kindly note the recorded protein stability index for EGQADIDMESDVEDDDK [POP7] , which is 3.37

Kindly note the recorded protein stability index for KASVTIVFDNTDKSNSP [SMC2] , which is 2.99

Kindly note the recorded protein stability index for CDEHMGLSLAGLAPDAR [PRE5] , which is 2.79

* * *

PROTOCOL DETAILS: protein stability index of a GFP-peptide fusion (yeast GPS) (PSI 1-4); higher = more stable; sorted into four equal gates, so the index is relative within each strain
CONDITION CONTEXT: ubr1∆
Use True when the recorded protein stability index is no lower than 3; use False when it is lower.

Consider the following illustrative entries.
DALEMQWRYLYDTQLKV [ARP7]: False
LQDLISVYGLDDISRQV [ROX3]: True
MKEDGLSFVDIVLSKAA [SIR4]: False
QALDISKKGKPTVNKKP [SRP72]: False

## Input Textbook exercise: given the entry STVIEEFTLFMDIAERI [YGL172W/NUP49] , state whether its protein stability index is greater than or equal to 3.
## Output False

## Input Textbook exercise: given the entry DIGKEMSLRHFGHLMHY [RPN1] , state whether its protein stability index is greater than or equal to 3.
## Output False

## Input Textbook exercise: given the entry KLLGVDMQSSVDTGLQP [YLR018C/POM34] , state whether its protein stability index is greater than or equal to 3.
## Output True

## Input Textbook exercise: given the entry ADTLDPALLRPGRLDRK [RPT3] , state whether its protein stability index is greater than or equal to 3.
## Output True

## Input Textbook exercise: given the entry SAASKKKKNKNKGKKKR [SRP21] , state whether its protein stability index is greater than or equal to 3.
## Output True

## Input Textbook exercise: given the entry FDFLMNMPNCDYLTLNK [RPN2] , state whether its protein stability index is greater than or equal to 3.
## Output False

## Input Textbook exercise: given the entry NLDYLFELIELVTPKSF [NUT1] , state whether its protein stability index is greater than or equal to 3.
## Output True

* * *

PROTOCOL DETAILS: protein stability index of a GFP-peptide fusion (yeast GPS) (PSI 1-4); higher = more stable; sorted into four equal gates, so the index is relative within each strain
CONDITION CONTEXT: san1∆
Let's look at some sequences and their measured protein stability index.
The reply should be a number, written without any unit.

The following sequences have reported results that may help.
LLRPSSKVIIKFLQVMQ [RPS22B]: 1.72
MEYLSGGEKTVAALALL [SMC1]: 1.68
IMELPGVYSDDELLSQL [SRP68]: 3.22
MLWNLAAKKAMYTLSAQ [ASC1]: 2.06
KGRSYAYFMVGAMGLLS [RIP1]: 3.16
RFTKFSDTLKEFKIEQN [YDL116W/NUP84]: 1.42
PTPAASAPAPAAAAPAP [FAS2]: 2.72
LAIADVETKLETKVDEL [DSN1]: 3.19
SLSVVAGKWSSKYLIKQ [ECM29]: 2.15
NPMKKHKPNEGRTPNIS [SIR4]: 2.88

Kindly note the recorded protein stability index for LCTLNDSKGSLYSVKFA [YGL100W/SEH1] , which is 2.62

Kindly note the recorded protein stability index for QAHTLYNSVRPFGVSTI [PRE10] , which is 2.92

Kindly note the recorded protein stability index for IEKLTDGHLRAPLKHGV [BRR2] , which is 3.01

Kindly note the recorded protein stability index for LRLTDVTNSLSNEEKEK [GAL11] , which is 2.52
